- Tested on: HCT-15 colon
- Assay Protocol: NCI-60 one-dose screen, 48 h (100 = growth as untreated, 0 = no growth, -100 = all killed)
- Assay Context: 10 µM unless noted
The panel holds about 83,000 compounds, 20% with a hit somewhere; the sample as a whole holds those more often.
The class of a record is decided solely by its measured growth; consult low-valued = under 20%, mid-valued = from 20% up to 90%, high-valued = 90% and over

Reference set, count: 3
- Molecule: "O=C(O)c1ccc2c(c1Cl)C(=O)c1ccccc1C2=O"
  Measurement Target: "HCT-15 colon"
  Label: "high-valued"
- Molecule: "C=CCOC1=CC(=O)c2ccccc2C1=O"
  Measurement Target: "HCT-15 colon"
  Label: "high-valued"
- Molecule: "CC1(C)OC2C(CO[Si](C)(C)C(C)(C)C)OC(n3c(I)c(C#C[Si](C)(C)C)c(=O)[nH]c3=O)C2O1 (stereo not given)"
  Measurement Target: "HCT-15 colon"
  Label: "high-valued"

Query: Exercise: read the entry `COC(=O)c1c2c(c(C)[n+]([O-])c1C)C(=O)C(NCc1ccc(F)c(Cl)c1)=CC2=O` and state which class it falls under.
Result: low-valued

Query: Category of `Cc1cc(NCc2cc(Nc3ccnc4cc(Cl)ccc34)ccc2F)nc(N2CCCC2)n1` , please.
Result: low-valued

Query: Band of `COc1ccc(NC(=O)c2nc(-c3cc(OC)c(OC)c(OC)c3)n(-c3cccc4ccccc34)n2)cc1OC` ?
Result: low-valued

Query: Pick a category. Item: `CCN(CC)CCn1nc2c3c(cccc3c1=O)-c1ccccc1-2`
Result: low-valued

Query: Into which category would you place `COc1ccc(-c2csc(C3=C(O)CN(C(C)C)C3=N)n2)cc1OC` ?
Result: high-valued

Query: Dear colleague, I would appreciate it if you could identify the bin for `COC(=O)[C@]12CC[C@@H](C)[C@H](C)[C@@H]1C1=CC[C@@H]3[C@@]4(C)C(C=O)=C[C@@](C)(COC(=O)c5ccco5)[C@@H]4C(=O)C[C@@]3(C)[C@]1(C)CC2` and reply at your convenience.
Result: mid-valued

Query: Hey, which category is `c1csc(-c2c3ccc(=[N+]4CCCCC4)cc-3oc3cc(N4CCCCC4)ccc23)c1` in, do you know?
Result: low-valued

Query: Sort `Cc1ccc(Cl)cc1NC(=O)c1cc2ccccc2cc1O` into one of the categories.
Result: low-valued

Query: Field: class (growth) — entry: `c1ccc2cc3nc4cc5ccccc5cc4nc3cc2c1`
Result: high-valued

Query: Which growth band matches `COc1ccccc1CNCCCN1C(=O)c2ccc3c4c(ccc(c24)C1=O)C(=O)N(CCCNCCCCN)C3=O` ?
Result: low-valued

Query: Assign a category based on measured growth for `O=C(NCCNc1cc(-c2cn(-c3ccccc3)nc2-c2cccc(O)c2)ccn1)Nc1ccccc1` and give only the class name.
Result: mid-valued

Query: Kindly state the category for this molecule: `COc1cccc(C(=O)NCCCNc2cc(-c3cn(-c4ccccc4)nc3-c3cccc(OC)c3)ccn2)c1`
Result: mid-valued

Query: For `C(=N\Nc1ncc(-c2cc3cc4c(cc3o2)OCO4)s1)/c1ccco1` , which growth bin applies?
Result: low-valued

###

- Tested on: NCI-H522 lung
- Assay Protocol: NCI-60 one-dose screen, 48 h (100 = growth as untreated, 0 = no growth, -100 = all killed)
- Assay Context: 10 µM unless noted
Compounds without any hit were thinned out: in the full panel of roughly 83,000, 20% have a hit.
Value Kind: growth (%)
Answers are plain numbers, in %.

- Compound: "CCOP(=O)(OCC)C1CP(=O)(c2ccccc2)CC(C)=C1Cl (centres undefined)"
  Measurement Target: "NCI-H522 lung"
  growth, %: 65.3

For every record below, what is its growth?
1. CC(=O)[C@@H]1CC[C@]2(COS(=O)(=O)c3ccc(C)cc3)CC[C@]3(C)[C@H](CC[C@@H]4[C@@]5(C)CCCNC(C)(C)[C@@H]5CC[C@]43C)[C@@H]12
2. C=CCn1c(C)nc2cc(Nc3nc(N4CCCC4)nc4ccccc34)ccc21
3. O=C(c1ccc(Nc2nccc(NCCCCNc3ccnc4cc(Cl)ccc34)n2)cc1)N1CCCCC1

Result:
1. 89.8
2. 127
3. 33.2
